Target: NADPH oxidase 4 (Homo sapiens) (UniProt Q9NPH5)
Sequence (Q9NPH5 whole entry, looked up): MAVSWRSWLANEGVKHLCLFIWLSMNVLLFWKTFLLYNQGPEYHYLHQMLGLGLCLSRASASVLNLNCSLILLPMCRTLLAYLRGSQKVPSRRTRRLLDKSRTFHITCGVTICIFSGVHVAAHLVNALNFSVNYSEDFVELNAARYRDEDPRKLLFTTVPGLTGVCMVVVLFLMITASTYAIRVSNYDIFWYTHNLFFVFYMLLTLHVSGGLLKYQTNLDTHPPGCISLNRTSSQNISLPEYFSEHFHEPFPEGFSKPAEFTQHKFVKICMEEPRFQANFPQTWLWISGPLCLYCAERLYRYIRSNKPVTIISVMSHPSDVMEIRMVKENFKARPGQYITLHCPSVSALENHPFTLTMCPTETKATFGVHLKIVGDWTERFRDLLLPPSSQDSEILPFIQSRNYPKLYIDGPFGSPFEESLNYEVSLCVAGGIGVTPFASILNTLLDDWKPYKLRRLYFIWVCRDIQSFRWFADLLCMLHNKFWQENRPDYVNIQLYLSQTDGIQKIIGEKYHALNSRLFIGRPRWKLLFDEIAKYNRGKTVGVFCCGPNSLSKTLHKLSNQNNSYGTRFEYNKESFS
Assay: compounds shifting NOX4 Amplex Red fluorescence – cell-based, HEK293-NOX4, tetracycline-induced, NOX inhibitor project, primary screen (AID 1160)
Settings: HEK293-NOX4, Amplex Red H2O2 fluorescence, 45 min; higher = more signal, called active from +8 up or from −8 down
reported.property: z-score
Just the number, please.

# annotated cases, reported z-score shown
| compound | assay.system | result |
| --- | --- | --- |
| CC(C)c1nc2cc(Br)ccc2c(=O)o1 | NADPH oxidase 4 (Homo sapiens) (UniProt Q9NPH5) | -0.0107 |
| CN1C(=O)C2C(C1=O)C1C=C(c3ccc(CO)cc3)C2C(C2CC2)N1C (stereo unspecified) | NADPH oxidase 4 (Homo sapiens) (UniProt Q9NPH5) | -0.394 |
| CC(C)C(=C=CC[C@H](O)c1ccccc1OCCO)C[C@H](O)COCc1ccccc1 | NADPH oxidase 4 (Homo sapiens) (UniProt Q9NPH5) | -1.44 |

// z-score lookup, key: `COc1ccc(C(=O)Nc2cccc(CN3C(=O)[C@@]4(O[C@@H](CC(=O)N5CCC[C@H]5CO)[C@H]([Si](C)(C)c5ccc(OC)cc5)[C@H]4C)c4ccccc43)c2)cc1` 0.982

Repeat for the following compound: CCC(CC)C(O)C1C=CC2C(=O)N(c3ccccc3)C(=O)C2N1Nc1ccccc1F (stereo unspecified) -0.0786

Would you mind doing C=C(C)[C@@H]1CC=C(C(O)C2C=CC3C(=O)N(C)C(=O)C3N2Nc2ccc([N+](=O)[O-])cc2[N+](=O)[O-])CC1 (stereo partly specified) as well? 0.811

// repeat for OCCCC1=CC(c2ccc(CN3CCCC3)cc2)N(Cc2cccc(OC(F)(F)F)c2)CC1 (stereo unspecified) and report -2.06

Ok, now `CC[C@@H]1C=C(C(=O)O)[C@H](c2ccc(OC)cc2)N1S(=O)(=O)c1ccc(C)cc1` -0.517

What about [N-]=[N+]=Nc1ccccc1[C@@H]1OC(c2ccc(OCCCO)cc2)=N[C@]1(CCS(=O)(=O)c1ccccc1)C(=O)NCC(O)CO (stereo partly specified) ? -0.18

Proceed to C[C@@H]1NC(=O)C([C@@H](C)OCc2ccccc2)NC(=O)[C@@]23C(=O)N[C@@H](Cc4ccccc4)C2[C@H](C)[C@@]2(C)O[C@H]2C3/C=C/C/C=C\CNC1=O (stereo partly specified) -0.942

====

Reported values of composite z-score for individual entries
Molecular target: Focal adhesion kinase 1 (Homo sapiens) (UniProt Q05397)
Sequence (Q05397 whole entry, looked up): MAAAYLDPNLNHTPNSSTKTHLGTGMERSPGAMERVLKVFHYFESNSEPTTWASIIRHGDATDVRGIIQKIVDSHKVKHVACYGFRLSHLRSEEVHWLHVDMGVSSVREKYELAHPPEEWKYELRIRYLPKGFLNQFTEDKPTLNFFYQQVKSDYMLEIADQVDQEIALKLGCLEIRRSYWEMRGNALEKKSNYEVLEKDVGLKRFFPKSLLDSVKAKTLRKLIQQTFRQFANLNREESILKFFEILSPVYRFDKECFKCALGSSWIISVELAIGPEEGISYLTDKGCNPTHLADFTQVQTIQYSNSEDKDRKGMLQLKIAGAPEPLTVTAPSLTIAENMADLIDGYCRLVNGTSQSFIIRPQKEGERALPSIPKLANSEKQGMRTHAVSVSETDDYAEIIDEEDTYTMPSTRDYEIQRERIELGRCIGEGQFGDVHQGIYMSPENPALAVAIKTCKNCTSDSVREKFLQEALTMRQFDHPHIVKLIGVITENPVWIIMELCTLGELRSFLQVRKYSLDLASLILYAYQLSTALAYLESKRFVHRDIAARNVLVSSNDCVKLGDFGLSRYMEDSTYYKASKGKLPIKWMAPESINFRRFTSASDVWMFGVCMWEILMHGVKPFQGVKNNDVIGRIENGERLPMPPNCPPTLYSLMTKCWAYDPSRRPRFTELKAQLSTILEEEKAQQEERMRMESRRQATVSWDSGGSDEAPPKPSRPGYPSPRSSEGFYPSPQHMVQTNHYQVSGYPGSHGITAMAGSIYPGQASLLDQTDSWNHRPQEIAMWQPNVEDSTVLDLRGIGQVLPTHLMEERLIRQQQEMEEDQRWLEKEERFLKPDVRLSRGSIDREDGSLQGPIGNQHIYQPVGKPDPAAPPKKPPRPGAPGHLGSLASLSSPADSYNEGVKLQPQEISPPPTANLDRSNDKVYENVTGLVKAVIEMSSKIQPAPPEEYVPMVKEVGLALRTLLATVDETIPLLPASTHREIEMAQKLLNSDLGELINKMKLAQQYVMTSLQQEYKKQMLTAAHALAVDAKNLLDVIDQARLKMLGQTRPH
Test: PTK2 protein binding on printed compound slides – biochemical, small-molecule microarray, 635/667 nm fluorescence, BSA, DTT, primary screen (AID 1130);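 further: composite of spot emission at 667 nm and signal to noise over triplicate slides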
Details: 635 nm fluorescence, higher = more signal
// return a plain number; no unit text

Examples with answers:
| smi | assay.system | reported.property | result |
| --- | --- | --- | --- |
| COC(=O)[C@@]1(Cc2ccccc2)[C@H]2c3cc(C(=O)N(C)C)n(Cc4ccc(C(F)(F)F)nc4)c3C[C@H]2CN1C(=O)c1ccccc1 | Focal adhesion kinase 1 (Homo sapiens) (UniProt Q05397) | composite z-score | 0.74 |
| C=C(COC)C(=O)CC[C@@H](OC(=O)c1ccccc1-c1ccccc1C(=O)O)c1ccc(OCCO)cc1 | Focal adhesion kinase 1 (Homo sapiens) (UniProt Q05397) | composite z-score | -0.0142 |
| CCCC#C[Si](O[C@H](CC)c1cn(Cc2ccccc2)nn1)(C(C)C)C(C)C | Focal adhesion kinase 1 (Homo sapiens) (UniProt Q05397) | composite z-score | 0.0116 |

Then there is this compound:
Param readout= composite z-score; system= Focal adhesion kinase 1 (Homo sapiens) (UniProt Q05397); entry= `CCCC=C(CCC)[C@@H](NC(=O)OCC(C)C)c1ccc(C(=O)OC)cc1` ; returns value. 1.16

====

Assay: probe aShh binding to arrayed compounds – biochemical, biotinylated probe, 635/667 nm fluorescence, primary screen (AID 1114);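 further: probe is biotin-labelled aShh protein from a stem cell growth factor screen; measures binding of labelled protein to compounds printed on the slide; score merges feature fluorescence at 667 nm with signal-to-noise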
Settings: small-molecule microarray, higher = more signal
reported.property: composite z-score
Just the number, please.

Some solved entries appear below for comparison.
| molecule | composite z-score |
| --- | --- |
| Cc1ccc(F)cc1S(=O)(=O)N[C@H]1CCN(Cc2ccc(OC(C)C)cc2)C1 | -0.0959 |
| CCCC#C[Si](O[C@H](CC)c1cn(Cc2ccccc2)nn1)(C(C)C)C(C)C | -0.153 |
| Cc1ccc(S[C@]2(C(=O)NCC(F)(F)F)CC(=O)N(Cc3ccccc3C(F)(F)F)[C@@H]2c2ccc(CO)cc2)cc1 | -0.253 |
| CCOC(=O)C1=CCC(c2cc3ccccc3[nH]2)N(CCN2CC(C(=O)OCC)=CCC2c2cc3ccccc3[nH]2)C1 (stereo not given) | 0.0639 |
| O=C1OCCC=C[C@H]2OC34C=CCN(c5ccc6ccccc6c5)C(=O)[C@H]3N(CCO)C(=O)[C@@H]4C12 (stereo not given in full) | -0.383 |

Recorded composite z-score of CN1C(=O)C2C(C1=O)C1C=C(CCCO)C2C(C2CC2)N1Cc1cccc(OC(F)(F)F)c1 (stereo not given) , please. -0.0709

Can you check `C[N+](C)(C)CCCC[C@@H]1NC(=O)[C@H]2C[C@@H](C(=O)NCCCCCNC(=O)CS)[C@@H](c3cccc(OCCO)c3)N2C1=O` next? -0.0626

What about this molecule? `COc1ccc([Si](C)(C)[C@H]2[C@H](CCO)O[C@@]3(C(=O)N(Cc4cccc(N(C=O)c5ccccc5)c4)c4ccccc43)[C@@H]2C)cc1` 0.0723

Now this one: `[N-]=[N+]=Nc1ccccc1C[C@@]1(C(=O)NCc2ccccc2)N=C(c2ccc(OCCCO)cc2)O[C@@H]1c1ccccc1N=[N+]=[N-]` 0.171

Also check `O=C1c2ccccc2[C@@]2(Cc3ccccc3N(Cc3ccccc3)C2=O)[C@H](c2ccc(CO)cc2)N1Cc1ccccc1Cl` -0.412

What do we get for `COc1ccc([Si](C)(C)[C@H]2[C@H](CCO)O[C@@]3(C(=O)N(Cc4ccc(NC(=O)[C@H](C)O)cc4)c4ccccc43)[C@@H]2C)cc1` ? 0.318

Another molecule to check: `CC(C)[Si](C#CCCc1ccccc1)(O[C@H](c1ccccc1)c1cn(Cc2ccccc2)nn1)C(C)C` -0.338

Thanks! And CC(C)C(CO)N1C(=O)[C@@H]2C3C(=O)OCCC/C=C\[C@H]3OC23C=CCN(Cc2ccccc2)C(=O)[C@@H]13 (stereo not given in full) ? 0.254

Next molecule up: COc1ccc(NN2C(C(O)c3ccc(I)cc3)C=CC3C(=O)N(C4CCCCC4)C(=O)C32)cc1 (stereo not given) -0.147

Do the same for `COC(=O)[C@@]1(Cc2ccc(F)cc2)[C@H]2c3cc(C(=O)N(C)C)n(C)c3C[C@H]2CN1C(=O)c1ccccc1` please 0.705

====

Target: NADPH oxidase 2 (Homo sapiens) (UniProt P04839)
Sequence (P04839 whole entry, looked up): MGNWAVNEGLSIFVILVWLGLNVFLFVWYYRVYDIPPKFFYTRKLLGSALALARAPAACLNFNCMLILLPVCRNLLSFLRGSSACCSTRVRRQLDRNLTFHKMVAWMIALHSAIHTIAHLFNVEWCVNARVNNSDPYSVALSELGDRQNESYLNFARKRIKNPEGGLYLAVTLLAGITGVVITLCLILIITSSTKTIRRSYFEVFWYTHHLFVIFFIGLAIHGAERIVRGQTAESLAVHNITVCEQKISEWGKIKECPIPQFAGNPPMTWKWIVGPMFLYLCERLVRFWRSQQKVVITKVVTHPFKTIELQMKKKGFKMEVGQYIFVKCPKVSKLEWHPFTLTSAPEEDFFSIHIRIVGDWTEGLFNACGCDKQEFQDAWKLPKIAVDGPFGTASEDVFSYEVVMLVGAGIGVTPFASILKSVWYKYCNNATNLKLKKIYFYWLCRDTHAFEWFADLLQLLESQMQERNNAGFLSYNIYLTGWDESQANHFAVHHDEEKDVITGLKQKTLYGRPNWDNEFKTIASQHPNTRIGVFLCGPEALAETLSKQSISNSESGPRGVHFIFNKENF
Experiment: compounds shifting NOX2 Amplex Red fluorescence – cell-based, HEK293-NOX2, PMA-stimulated, NOX inhibitor project, primary screen (AID 1159); further: test concentration not given here
Conditions: 45 min, higher = more signal, called active from +8 up or from −8 down
reported.property: z-score
In your answer, state the number alone without any accompanying words.

| molecule | z-score |
| --- | --- |
| COCCOC(=O)N1C(=O)[C@@]2(c3cc(C#CCC(C(=O)OC)C(=O)OC)ccc31)[C@H](C(=O)Nc1nc3ccccc3s1)[C@H]1C(=O)O[C@H](c3ccccc3)[C@H](c3ccccc3)N1[C@@H]2c1ccc(O)cc1 | 1.59 |

Please state recorded z-score (tested on NADPH oxidase 2 (Homo sapiens) (UniProt P04839)) of COc1ccc(C(O)C2C=CC3C(=O)N(c4ccccc4)C(=O)C3N2Nc2ccc([N+](=O)[O-])cc2)c2ccccc12 (stereo not drawn) -0.273

What would you report for CCCCN1CC=CC23O[C@@H]4/C=C\CCCOC(=O)C4[C@H]2C(=O)N(C(CO)C(C)C)[C@@H]3C1=O (stereo partly drawn) ? 1.71

====

Experiment: blockers of DNA damage checkpoint Chk1 activation – imaging, HeLa, hydroxyurea, phospho-Chk1 nuclear intensity, primary screen (AID 1187); further: test concentration not given here
Conditions: hydroxyurea-induced phospho-Chk1 immunofluorescence imaging, higher = more signal
The source made the active and inactive calls. The rule behind the calls is not given here.
In this section, each of the molecules is paired with its reported z-score.

# count of solved cases: 2
| molecule | z-score |
| --- | --- |
| COCCCNC(=O)[C@@]1(Sc2ccc(C)cc2)CC(=O)N(Cc2ccccc2C(F)(F)F)[C@@H]1c1ccc(CO)cc1I | 0.204 (inactive) |
| COc1ccc(C(O)C2C=CC3C(=O)N(c4ccccc4)C(=O)C3N2Nc2ccc([N+](=O)[O-])cc2)c2ccccc12 (centres undefined) | -0.404 (inactive) |

Given the molecule `Cc1ccc(S[C@]2(C(=O)NC3CC3)CC(=O)N(C(C)C)[C@@H]2c2ccc(CO)cc2I)cc1` , what is its reported z-score? -0.439 (inactive)

// query: `COC(=O)[C@@]1(Cc2ccc(OC)cc2)[C@H]2c3cc(C(=O)N4CCCC4)n(CCn4cc([N+](=O)[O-])nc4C)c3C[C@H]2CN1C(=O)c1ccccc1` 1.22 (inactive)
